TARGET OR TEST SYSTEM: S1P1 (Homo sapiens, UniProt P21453)
Sequence (P21453 whole entry, species assumed): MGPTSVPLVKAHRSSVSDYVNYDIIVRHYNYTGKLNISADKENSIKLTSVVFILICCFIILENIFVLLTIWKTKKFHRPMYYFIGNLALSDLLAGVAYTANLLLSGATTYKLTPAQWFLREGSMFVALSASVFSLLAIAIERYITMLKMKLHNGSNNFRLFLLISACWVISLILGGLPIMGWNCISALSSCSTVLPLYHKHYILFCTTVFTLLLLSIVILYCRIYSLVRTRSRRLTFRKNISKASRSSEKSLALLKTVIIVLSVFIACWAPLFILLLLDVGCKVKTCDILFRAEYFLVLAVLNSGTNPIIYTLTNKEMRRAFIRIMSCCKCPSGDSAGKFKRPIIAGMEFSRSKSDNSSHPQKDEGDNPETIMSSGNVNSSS
ASSAY DETAILS: [35S]-GTPγS binding assay, S1P1
Assay type: biochemical
CONDITION PARAMETERS: membranes of CHO cells expressing recombinant S1P receptors; [35S]-GTPγS binding; read-out: S1P1 EC50
hey, just use 1 (yes) if measured EC50 is less than 6 nM, otherwise 0 (no)

In: Please determine if CC(C)Oc1ccc(-c2nc(-c3cccc4c3CCC4=NOCCC(=O)O)no2)cc1C#N (stereo in doubt) [Compound 7] is below 6 nM in terms of EC50.
Out: 0 (no)

----------
TARGET OR TEST SYSTEM: S1P5 (Homo sapiens)
ASSAY DETAILS: [35S]-GTPγS binding assay, S1P5
CONDITION PARAMETERS: membranes of CHO cells expressing recombinant S1P receptors
READOUT LABEL: pEC50
# reply with the number alone; pEC50 is -log10 of concentration in mol/L

In: Which value of pEC50 has been reported for CC(C)Oc1ccc(-c2nc(-c3cccc4c3CCC4=NOCCC(=O)O)no2)cc1C#N (stereo in doubt) [Compound 7] in the records?
Out: 7.52

In: Another compound to check: CC(C)Oc1ccc(-c2nc(-c3cccc4c3CC/C4=N/O)no2)cc1C#N [Compound 10]
Out: 8.22

In: Another compound to check: CC(C)Oc1ccc(-c2nc(-c3cccc4c3CC/C4=N/OC(C)(C)C)no2)cc1C#N [Compound 5]
Out: 7.11

In: Another compound to check: CC(C)Oc1ccc(-c2nc(-c3cccc4c3CC/C4=N/OCCCC(=O)O)no2)cc1C#N [Compound 11]
Out: 7.10

In: Another compound to check: CC(C)Oc1ccc(-c2nc(-c3cccc4c3CC/C4=N/OCCN(C)C)no2)cc1C#N [Compound 8]
Out: 7.82

----------
TARGET OR TEST SYSTEM: S1P1 (Homo sapiens)
ASSAY DETAILS: [35S]-GTPγS binding assay, S1P1
Assay type: biochemical
READOUT LABEL: EC50

In: Which value of EC50 has been reported for CC(C)Oc1ccc(-c2nc(-c3cccc4c3CC/C4=N/OCC(=O)O)no2)cc1C#N in the records?
Out: 19 nM

----------
Recorded Emax by entry
TARGET OR TEST SYSTEM: S1P1 (Homo sapiens)
ASSAY DETAILS: [35S]-GTPγS binding assay, S1P1
Assay type: biochemical
CONDITION PARAMETERS: membranes of CHO cells expressing recombinant S1P receptors; [35S]-GTPγS binding; control S1P; read-out: S1P1 % Efficacy
Field format: number, assumed %, no unit text.

Before answering, review these 2 worked examples.
> print(dat)
                                   compound  target.or.test.system  readout.label  number
1  CC(C)Oc1ccc(-c2nc(-c3cccc4c3CCC4=NOCCC(=O)O)no2)cc1C#N (stereo in doubt)    S1P1 (Homo sapiens)           Emax      89
2  CC(C)Oc1ccc(-c2nc(-c3cccc4c3CC/C4=N/O)no2)cc1C#N    S1P1 (Homo sapiens)           Emax      97

In: Short answer please: Emax, S1P1 (Homo sapiens), entry CC(C)Oc1ccc(-c2nc(-c3cccc4c3CC/C4=N/OCC(=O)O)no2)cc1C#N
Out: 90

In: Another compound to check: CC(C)Oc1ccc(-c2nc(-c3cccc4c3CC/C4=N/OCCN(C)C)no2)cc1C#N
Out: 90

In: Another compound to check: CC(C)Oc1ccc(-c2nc(-c3cccc4c3CC/C4=N/OC(C)(C)C)no2)cc1C#N
Out: 98

In: Another compound to check: CC(C)Oc1ccc(-c2nc(-c3cccc4c3CC/C4=N/OCCCC(=O)O)no2)cc1C#N
Out: 85

----------
TARGET OR TEST SYSTEM: S1P5 (Homo sapiens, UniProt Q9H228)
Sequence (Q9H228 whole entry, species assumed): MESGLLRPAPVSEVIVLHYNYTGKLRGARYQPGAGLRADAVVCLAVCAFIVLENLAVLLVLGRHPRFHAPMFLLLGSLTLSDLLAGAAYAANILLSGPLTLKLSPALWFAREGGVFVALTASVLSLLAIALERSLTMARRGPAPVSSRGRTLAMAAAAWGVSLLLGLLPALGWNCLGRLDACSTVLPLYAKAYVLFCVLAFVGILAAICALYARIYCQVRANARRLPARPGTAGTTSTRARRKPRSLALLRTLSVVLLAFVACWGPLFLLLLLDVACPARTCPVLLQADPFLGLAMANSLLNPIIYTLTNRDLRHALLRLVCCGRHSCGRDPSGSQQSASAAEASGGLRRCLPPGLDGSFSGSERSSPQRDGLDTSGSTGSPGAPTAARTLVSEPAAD
ASSAY DETAILS: [35S]-GTPγS binding assay, S1P5
Format: biochemical
CONDITION PARAMETERS: membranes of CHO cells expressing recombinant S1P receptors, control S1P, read-out: S1P5 % Efficacy
READOUT LABEL: Emax (%)
Field format: number, assumed %, no unit text.

> print(dat)
                                   molecule  readout.label  unit.name  number
1  CC(C)Oc1ccc(-c2nc(-c3cccc4c3CCC4=NOCCC(=O)O)no2)cc1C#N (stereo in doubt)           Emax          %      29
2  CC(C)Oc1ccc(-c2nc(-c3cccc4c3CC/C4=N/OC(C)(C)C)no2)cc1C#N           Emax          %      79

In: Which value of Emax has been reported for CC(C)Oc1ccc(-c2nc(-c3cccc4c3CC/C4=N/OCCN(C)C)no2)cc1C#N in the records?
Out: 64

In: Another molecule to check: CC(C)Oc1ccc(-c2nc(-c3cccc4c3CC/C4=N/O)no2)cc1C#N
Out: 58

In: Another molecule to check: CC(C)Oc1ccc(-c2nc(-c3cccc4c3CC/C4=N/OCCCC(=O)O)no2)cc1C#N
Out: 85

----------
TARGET OR TEST SYSTEM: S1P1 (Homo sapiens)
ASSAY DETAILS: [35S]-GTPγS binding assay, S1P1
Format: biochemical
CONDITION PARAMETERS: membranes of CHO cells expressing recombinant S1P receptors; [35S]-GTPγS binding; read-out: S1P1 EC50
Recorded pEC50 by entry
# reply with the number alone; pEC50 is -log10 of concentration in mol/L

> print(dat)
                                   compound  number
1  CC(C)Oc1ccc(-c2nc(-c3cccc4c3CC/C4=N/OCCN(C)C)no2)cc1C#N [Compound 8]    8.10
2  CC(C)Oc1ccc(-c2nc(-c3cccc4c3CC/C4=N/OCCCC(=O)O)no2)cc1C#N [Compound 11]    8.22
3  CC(C)Oc1ccc(-c2nc(-c3cccc4c3CC/C4=N/OC(C)(C)C)no2)cc1C#N [Compound 5]    7.70

In: Short answer please: pEC50, S1P1 (Homo sapiens), entry CC(C)Oc1ccc(-c2nc(-c3cccc4c3CC/C4=N/O)no2)cc1C#N [Compound 10]
Out: 8.40

Ref: patent US12364686B2
